Examples of compounds with documented EC50 follow.
system: HBV; assay: Anti-HBV activity, intracellular HBV DNA by real-time PCR (HBV-AVE-HepG2.117); type: cell-based, Hepatitis B virus; conditions: Hepatitis B virus, HepG2.117, 72 h, HepG2.117 cell line, 3 days of treatment, intracellular HBV DNA, mean value; read-out: HBV-AVE-HepG2.117 EC50 (μM; mean value)
Recorded endpoint: EC50 (µM)

[[record]]
compound = "C[C@H]1[C@@H](C(=O)Nc2ccc(F)c(Cl)c2F)CCN1C(=O)C(=O)NC1(c2c[nH]nn2)CC(F)(F)C1"
value_reported = 0.01

[[record]]
compound = "C[C@H]1[C@@H](C(=O)Nc2ccc(F)c(C(F)(F)F)c2)CCN1C(=O)C(=O)NC1(c2c[nH]nn2)CC(F)(F)C1"
value_reported = 0.012

[[record]]
compound = "C[C@H]1[C@@H](C(=O)Nc2ccc(F)c(Cl)c2)CCN1C(=O)C(=O)N[C@H](CC(F)(F)F)c1c[nH]nn1 (single isomer, unassigned) [C34R*]"
value_reported = 0.003

[[record]]
compound = "Cc1c(F)ccc(NC(=O)[C@H]2CCN(C(=O)C(=O)NC3(c4c[nH]nn4)CC(F)(F)C3)[C@H]2C)c1F"
value_reported = 0.016

[[record]]
compound = "C[C@@H]1CN(C(=O)C(=O)NC2(c3c[nH]nn3)CC(F)(F)C2)C[C@H]1C(=O)Nc1cc(F)c(F)c(F)c1"
value_reported = 0.204

[[record]]
compound = "C[C@H]1[C@@H](C(=O)Nc2cc(F)c(F)c(F)c2)CCN1C(=O)C(=O)N[C@H](CC(F)(F)F)c1c[nH]nn1 (single isomer, unassigned) [C29R*]"
value_reported = 0.014

